biological target: Potassium channel subfamily K member 9 (Homo sapiens); test: KCNK9 potassium channel inhibitors, confirmation, HEK293 cells, thallium flux, duplicate (AID 492992); details: FluxOR thallium flux fluorescence, at 10 µM
The whole screen tested about 4,900 compounds, of which about 2,100 (43%) were called active.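 The calls were made as follows: active = thallium signal inhibited by more than 5 SD of the compound-free buffer control wells, on both duplicate plates; inactive = the rest.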 So high a share suggests a set chosen from earlier hits. Only a sample is shown.
Outcome codes: TRUE for active, FALSE for inactive

| compound | system.name | class.name |
| --- | --- | --- |
| COc1ccc(C(=O)C2CCCN(C(=O)c3ccc(OC)o3)C2)c(C)c1 (configuration not stated) | Potassium channel subfamily K member 9 (Homo sapiens) | FALSE |
| Cc1cccc(NC(=O)c2sc3nc4c(c(-c5ccco5)c3c2N)CCC4)c1 | Potassium channel subfamily K member 9 (Homo sapiens) | TRUE |
| O=C(Nn1c(SCc2ccc([N+](=O)[O-])cc2)nc2ccccc2c1=O)c1ccc(F)cc1 | Potassium channel subfamily K member 9 (Homo sapiens) | TRUE |
| COc1ccc(C(C)=O)cc1COc1ccc(Cl)c(C)c1 | Potassium channel subfamily K member 9 (Homo sapiens) | TRUE |
| Cc1cccc(N2CCN(C(=O)c3cccc(S(=O)(=O)N4CCc5ccccc5C4)c3)CC2C)c1 (configuration not stated) | Potassium channel subfamily K member 9 (Homo sapiens) | FALSE |
| Cc1ccc(C2=Nc3c(ccc4ccccc34)C(c3ccncc3)=NN2)cc1 | Potassium channel subfamily K member 9 (Homo sapiens) | TRUE |
| Cc1ccccc1CSc1nnc(CCCCCNC(=O)OC(C)(C)C)o1 | Potassium channel subfamily K member 9 (Homo sapiens) | FALSE |
| COc1ccccc1/C=C/C=N/n1c(-c2ccc(Cl)cc2Cl)n[nH]c1=S | Potassium channel subfamily K member 9 (Homo sapiens) | FALSE |
| O=[N+]([O-])c1ccc(N2CCN(CC(O)COc3ccccc3)CC2)cc1 (configuration not stated) | Potassium channel subfamily K member 9 (Homo sapiens) | FALSE |
| CCCCCCCCCCOC(=O)Cn1c(COc2ccc(C)cc2)[n+](C)c2ccccc21 | Potassium channel subfamily K member 9 (Homo sapiens) | TRUE |
| N#Cc1nc(Cc2cccc3ccccc23)oc1NCc1ccc2c(c1)OCO2 | Potassium channel subfamily K member 9 (Homo sapiens) | TRUE |
| O=[N+]([O-])/C=C/c1ccc2c(ccn2Cc2ccccc2)c1 | Potassium channel subfamily K member 9 (Homo sapiens) | FALSE |
| CC(C)N(C(=O)CSc1nc(COc2ccccc2)nc2ccccc12)C(C)C | Potassium channel subfamily K member 9 (Homo sapiens) | TRUE |
| CCN(CC)S(=O)(=O)c1ccc(N(C)Cc2ccc(C(F)(F)F)cc2)nc1 | Potassium channel subfamily K member 9 (Homo sapiens) | FALSE |
| COc1cccc(COC(=O)C2CCN(S(=O)(=O)c3ccc(Cl)cc3)CC2)c1OC | Potassium channel subfamily K member 9 (Homo sapiens) | FALSE |
| CCCCCCCCCCOC(=O)Cn1c(COc2cccc(OC)c2)[n+](C)c2ccccc21 | Potassium channel subfamily K member 9 (Homo sapiens) | TRUE |
| CCCCn1ccnc1C(=O)c1cccc(S(=O)(=O)N2c3ccccc3CC2C)c1 (configuration not stated) | Potassium channel subfamily K member 9 (Homo sapiens) | TRUE |
| Cc1c(C(=O)Nc2ccccn2)oc2ccc(Br)cc12 | Potassium channel subfamily K member 9 (Homo sapiens) | TRUE |
| Cc1ccc(SCC(=O)c2cc(C)c(OC(=S)N(C)C)c(C)c2)cc1 | Potassium channel subfamily K member 9 (Homo sapiens) | FALSE |
| Cc1cc(C)cc(NC(=O)CSCc2cnn(-c3ccccc3)c2-n2cccc2)c1 | Potassium channel subfamily K member 9 (Homo sapiens) | FALSE |
| CCOc1ccccc1NC(=O)C1CCCN(S(=O)(=O)c2ccccc2)C1 (configuration not stated) | Potassium channel subfamily K member 9 (Homo sapiens) | FALSE |
| COc1ccc(C2CC(c3cccs3)=NN2c2ccccc2)cc1 (configuration not stated) | Potassium channel subfamily K member 9 (Homo sapiens) | TRUE |
| O=C(Nc1ccc(Br)c2cccnc12)c1ccc(Cn2cc([N+](=O)[O-])cn2)o1 | Potassium channel subfamily K member 9 (Homo sapiens) | FALSE |
| COc1ccc(Nc2ncnc3sc(-c4ccccc4)cc23)c(OC)c1 | Potassium channel subfamily K member 9 (Homo sapiens) | TRUE |
| Cc1ccccc1CSCCNC(=O)c1ccc(N(C)S(=O)(=O)c2ccccc2)cc1 | Potassium channel subfamily K member 9 (Homo sapiens) | FALSE |
| O=C(Nc1ccccc1[N+](=O)[O-])C1C(c2ccccc2)=C1c1ccccc1 | Potassium channel subfamily K member 9 (Homo sapiens) | TRUE |
| Cc1ccc(C)c(NC(=S)NNC(=S)Nc2ccc(C(C)C)cc2)c1 | Potassium channel subfamily K member 9 (Homo sapiens) | FALSE |
| Cc1nc(N2CCN(c3ccccn3)CC2)c2c(C)c(C(=O)Nc3ccc(F)c(Cl)c3)sc2n1 | Potassium channel subfamily K member 9 (Homo sapiens) | TRUE |
| Clc1cccc(-c2nc3nc4ccccc4nc3n2Cc2ccco2)c1 | Potassium channel subfamily K member 9 (Homo sapiens) | TRUE |
| COc1ccc(C(=O)C2CCCN(C(=O)c3cc(C)on3)C2)cc1F (configuration not stated) | Potassium channel subfamily K member 9 (Homo sapiens) | FALSE |
| CCc1cccc(C)c1N(C(=O)Cn1c(CO)nc2ccccc21)C(C)COC (configuration not stated) | Potassium channel subfamily K member 9 (Homo sapiens) | TRUE |
| CN(c1ccccc1)S(=O)(=O)c1cccc(NC(=O)Cc2c(F)cccc2Cl)c1 | Potassium channel subfamily K member 9 (Homo sapiens) | TRUE |
